conditions: human, Liver
Outcome: Yes for Hepatotoxicity (severe hepatitis) of at least 1; No for anything lower.

compound=CO[C@@]1(NC(=O)CSC[C@@H](N)C(=O)O)C(=O)N2C(C(=O)O)=C(CSc3nnnn3C)CS[C@@H]21 cat=No
compound=C[C@H]1[C@H](NC(=O)/C(=N\OC(C)(C)C(=O)O)c2csc(N)n2)C(=O)N1S(=O)(=O)O cat=No
compound=CCCCC1=NC2(CCCC2)C(=O)N1Cc1ccc(-c2ccccc2-c2nnn[nH]2)cc1 cat=No
compound="COc1ccccc1OCCNCC(O)COc1cccc2[nH]c3ccccc3c12 (stereo not given)" cat=No
compound="O=P1(N(CCCl)CCCl)NCCCO1 (stereo not given) [CYCLOPHOSPHAMIDE ANHYDROUS]" cat=Yes
compound=CC(C)c1cccc(C(C)C)c1O cat=No
compound=Nc1ccn([C@@H]2CS[C@H](CO)O2)c(=O)n1 cat=Yes
compound=CN(C)CCC=C1c2ccccc2C=Cc2ccccc21 cat=No
compound=Cc1nnc2n1-c1ccc(Cl)cc1C(c1ccccc1Cl)=NC2 cat=Yes
compound="CCOc1cc(CC(=O)N[C@@H](CC(C)C)c2ccccc2N2CCCCC2)ccc1C(=O)O [REPAGLINIDE]" cat=No
compound=CN/C(=N/CCSCc1nc[nH]c1C)NC#N cat=Yes
compound=CCCc1cc(=O)[nH]c(=S)[nH]1 cat=Yes
compound=CC1(C)S[C@@H]2[C@H](NC(=O)[C@H](NC(=O)N3CCN(S(C)(=O)=O)C3=O)c3ccccc3)C(=O)N2[C@H]1C(=O)O cat=No
compound="Sc1ncnc2nc[nH]c12 [MERCAPTOPURINE ANHYDROUS]" cat=Yes

----------
details: human
metric: Hepatotoxicity (choleostasis)

compound="CCC(c1ccccc1)c1c(O)c2ccccc2oc1=O (centres undefined)" recorded_measurement=7
compound=CC(C)Cc1ccc(CC(=O)O)cc1 recorded_measurement=1
compound=CNC(=O)c1c(I)c(C(=O)NCC(=O)Nc2c(I)c(C(=O)O)c(I)c(C(=O)NCCO)c2I)c(I)c(N(C)C(C)=O)c1I recorded_measurement=0
compound=CC(=O)N[C@H]1[C@H]([C@H](O)[C@H](O)CO)OC(C(=O)O)=C[C@@H]1N=C(N)N recorded_measurement=0
compound=CCc1oc2ccccc2c1C(=O)c1cc(Br)c(O)c(Br)c1 recorded_measurement=0
compound="CN1CCOC(c2ccccc2)c2ccccc2C1 (centres undefined)" recorded_measurement=0
compound=CC/C(=C(/c1ccc(OCCN(C)C)cc1)c1cccc(O)c1)c1ccccc1 recorded_measurement=0
compound="COCCOC(=O)C1=C(C)NC(C)=C(C(=O)OC(C)C)C1c1cccc([N+](=O)[O-])c1 (centres undefined)" recorded_measurement=0
compound=CC(C)CN(C[C@@H](O)[C@H](Cc1ccccc1)NC(=O)O[C@H]1CCOC1)S(=O)(=O)c1ccc(N)cc1 recorded_measurement=0
compound=CC(C)(C)NC(=O)[C@@H]1CN(Cc2cccnc2)CCN1C[C@@H](O)C[C@@H](Cc1ccccc1)C(=O)N[C@H]1c2ccccc2C[C@H]1O.O recorded_measurement=0
compound=C[C@@H](O)[C@H]1C(=O)N2C(C(=O)O)=C(S[C@@H]3CN[C@H](C(=O)Nc4cccc(C(=O)O)c4)C3)[C@H](C)[C@H]12 recorded_measurement=0
compound="N=C(N)NC(=O)c1nc(Cl)c(N)nc1N [AMILORIDE]" recorded_measurement=0
compound=C=CCC1(CC(C)C)C(=O)NC(=O)NC1=O recorded_measurement=0
compound=COc1ccc2c(c1)c(CC(=O)O)c(C)n2C(=O)c1ccc(Cl)cc1 recorded_measurement=10
compound=CCCN(CCC)S(=O)(=O)c1ccc(C(=O)O)cc1 recorded_measurement=0
compound=O=C1c2cccc(O)c2C(=O)c2c(O)cccc21 recorded_measurement=0
compound="CC(C(=O)O)c1cccc(C(=O)c2ccccc2)c1 (centres undefined)" recorded_measurement=5
compound="CCN(CC)CCCC(C)Nc1c2ccc(Cl)cc2nc2ccc(OC)cc12 (centres undefined)" recorded_measurement=1
compound="COC(=O)C1=C(C#N)NC(C)=C(C(=O)OC(C)C)C1c1cccc([N+](=O)[O-])c1 (centres undefined)" recorded_measurement=0
compound=Cc1onc(-c2ccccc2Cl)c1C(=O)N[C@@H]1C(=O)N2[C@@H]1SC(C)(C)[C@@H]2C(=O)O recorded_measurement=8
compound=ClC=C(Cl)Cl recorded_measurement=0
compound=CC[C@H]1OC(=O)[C@H](C)[C@@H](O[C@H]2C[C@@](C)(OC)[C@@H](O)[C@H](C)O2)[C@H](C)[C@@H](O[C@@H]2O[C@H](C)C[C@H](N(C)C)[C@H]2O)[C@](C)(O)C[C@@H](C)CN(C)[C@H](C)[C@@H](O)[C@]1(C)O recorded_measurement=4
compound=C[C@]12COC(=O)C[C@@H]1CC[C@@H]1[C@@H]2CC[C@@]2(C)[C@H]1CC[C@]2(C)O recorded_measurement=2
compound=CN1CCN(C(=S)Nc2ccc(Nc3ccc([N+](=O)[O-])cc3)cc2)CC1 recorded_measurement=0
compound=CN(C)CCCN1c2ccccc2Sc2ccc(Cl)cc21 recorded_measurement=50
compound=COc1ccc(CCN(C)CCCOc2ccc(S(=O)(=O)c3c(C(C)C)cn4ccccc34)cc2)cc1OC recorded_measurement=0
compound="CN1CCN2c3ccccc3Cc3ccccc3C2C1 (centres undefined)" recorded_measurement=5
compound="COCC(=O)Nc1c(I)c(C(=O)NCC(O)CO)c(I)c(C(=O)N(C)CC(O)CO)c1I (centres undefined) [IOPROMIDE]" recorded_measurement=0
compound=C[C@H](CCc1ccccc1)NC[C@H](O)c1ccc(O)c(C(N)=O)c1 recorded_measurement=0
